target: dAsCas12a S542R (Acidaminococcus sp., UniProt U2UMQ6 1-1307, S542R;D908A;E993A;D1235A); assay: Spec-seq (native PAGE EMSA with sequencing of bound and unbound); 25 mM Tris-HCl pH 7.4, 150 mM KCl, 5 mM MgCl2, 10% glycerol, 1 mM DTT, 40 ng/uL salmon sperm DNA; 400 nM Cas12a, 480 nM crRNA, 50 nM library, 37 C 1 h; native PAGE at room temperature; high values mean tight binding; settings: protein: recombinant;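 further: relative affinity from the bound to unbound sequence frequency ratio in Spec-seq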
measure: binding signal (lnKA)
Your answer should be a plain number; it is taken to be in lnKA.

Input GCGC (dsDNA) DNA 1: GCTATCTAGTGCTCAGTACGCACTGGCGCAGGAAACTTCTGGCAGGACCAGGTCATGAGATCGGAAGAGCACACGTCTGAACTCCAGTCA DNA 2: TGACTGGAGTTCAGACGTGTGCTCTTCCGATCTCATGACCTGGTCCTGCCAGAAGTTTCCTGCGCCAGTGCGTACTGAGCACTAGATAGC RNA: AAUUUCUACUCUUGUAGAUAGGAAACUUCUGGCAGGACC . Output binding signal: -8.38

Input TTGC (dsDNA) DNA 1: GCTATCTAGTGCTCAGTACGCACTGTTGCAGGAAACTTCTGGCAGGACCAGGTCATGAGATCGGAAGAGCACACGTCTGAACTCCAGTCA DNA 2: TGACTGGAGTTCAGACGTGTGCTCTTCCGATCTCATGACCTGGTCCTGCCAGAAGTTTCCTGCAACAGTGCGTACTGAGCACTAGATAGC RNA: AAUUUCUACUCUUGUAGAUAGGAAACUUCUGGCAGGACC . Output binding signal: -6.74

Input ACAG (dsDNA) DNA 1: GCTATCTAGTGCTCAGTACGCACTGACAGAGGAAACTTCTGGCAGGACCAGGTCATGAGATCGGAAGAGCACACGTCTGAACTCCAGTCA DNA 2: TGACTGGAGTTCAGACGTGTGCTCTTCCGATCTCATGACCTGGTCCTGCCAGAAGTTTCCTCTGTCAGTGCGTACTGAGCACTAGATAGC RNA: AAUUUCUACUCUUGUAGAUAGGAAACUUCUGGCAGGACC . Output binding signal: -8.64
